Test: NCI Yeast Anticancer Drug Screen. Data for the mec2-1 strain (AID 157)
Conditions: S. cerevisiae mec2-1 strain, at 50.0 µM, active compounds read high
Procedure: Growth inhibition of yeast strains with defined genetic alterations is measured as a screen for potential anti-cancer activity. Selected strains with alterations in DNA damage repair or cell cycle control were exposed to compounds and growth inhibition was measured relative to vehicle treated controls. The strain used in this assay is mec2-1
About 79,000 compounds went through this panel and 15% of them were active in at least one assay; those are over-represented in the sample as a whole.
Assign growth inhibition to each entry below.
The reply should be a number in %, with the unit left off.

INPUT: Indicate its recorded growth inhibition; the compound in question is CC1=C(C[Si](C)(C)C)CC(CO[Si](C)(C)C(C)(C)C)C2C(=O)N(C(=O)c3ccccc3)C(Cc3ccccc3)C12 (stereo unspecified)
OUTPUT: 5.7

INPUT: Indicate its recorded growth inhibition; the compound in question is COc1nsc2ccc(C(C)C(N)=O)cc12 (stereo unspecified)
OUTPUT: 3.8

INPUT: Indicate its recorded growth inhibition; the compound in question is Cn1nc2ccc3nccc(NCCNCCO)c3c2n1
OUTPUT: -8.8

INPUT: Indicate its recorded growth inhibition; the compound in question is CCOC(=O)N(CCCl)C(=O)C(C)C
OUTPUT: -39.1

INPUT: Indicate its recorded growth inhibition; the compound in question is C/C=C(/C(=O)NC(N)=O)C(C)C
OUTPUT: 3.15

INPUT: Indicate its recorded growth inhibition; the compound in question is COc1cc(NCCCCCCCNC(C)C)c2nccc(C)c2c1
OUTPUT: 13.7

Where do the numbers come from? From PubChem BioAssay (NCI).
